# assayExplanation: in vivo
# experimentalSetup: female, C57BL/6, mouse, in vivo, iv, 1 mg/kg
testReadout: clearance (mL/min/kg)
Number in mL/min/kg, nothing else.

Task item: Can you look up the measured clearance of N=C(N)c1ccc(OCCN(CCOc2ccc(C(=N)N)cc2)c2ccccc2)cc1 for me?
Reply: 301

====

# assayExplanation: in vivo
# experimentalSetup: female, C57BL/6, mouse, in vivo, iv, 1 mg/kg
testReadout: MRT last (h)
Number in h, nothing else.

Task item: Can you look up the measured MRT last of N=C(N)c1ccc(OCCN(CCOc2ccc(C(=N)N)cc2)c2ccccc2)cc1 [Analog P35] for me?
Reply: 1.24

Measured values drawn from patent US20250382261A1 for this set.
